Test name: recombinant UMI read abundance after kanamycin selection (control-corrected) (log10(CPM+1)); higher = more efficient recombination; extreme values may be limits of the assay; sequences stand for … in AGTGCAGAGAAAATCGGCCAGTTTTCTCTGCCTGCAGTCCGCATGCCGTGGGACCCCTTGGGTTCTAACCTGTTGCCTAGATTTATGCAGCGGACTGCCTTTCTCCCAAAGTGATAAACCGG…AGGTTGGTTTCACT; site = the 11-nt donor;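 also: IS621 bridge recombinase in Escherichia coli cells against a fixed T5 target plasmid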
Hi, to clarify the labels: 1.0 covers recombinant UMI read abundance (log10) from 0.04 upward, 0.0 covers anything below 0.04.

- Monomer sequence: "TAACAGACATGGACCGGTTTTCCCGGTAATCCGTATTTGGT (site TAACAGACTAC)"
  Class: 1.0
- Monomer sequence: "GGTGCACCATGGACCGGTTTTCCCGGTAATCCGTATTTGCA (site GGAGCACCTTG)"
  Class: 0.0
- Monomer sequence: "GGTTCATCATGGACCGGTTTTCCCGGTAATCCGTATTTGCC (site GGTTCATCTGG)"
  Class: 1.0
- Monomer sequence: "CGTCCAACATGGACCGGTTTTCCCGGTAATCCGTATTTGTA (site GGTCCAACTTA)"
  Class: 0.0
- Monomer sequence: "ATGCAAGCATGGACCGGTTTTCCCGGTAATCCGTATTTGGA (site ATGCAAGCTTC)"
  Class: 1.0
- Monomer sequence: "CCAATATCATGGACCGGTTTTCCCGGTAATCCGTATTTGTC (site CCGATATCTGA)"
  Class: 0.0
- Monomer sequence: "GCTACTTCATGGACCGGTTTTCCCGGTAATCCGTATTTGCC (site GCTACTACTGG)"
  Class: 0.0
- Monomer sequence: "TGTTCCCCATGGACCGGTTTTCCCGGTAATCCGTATTTGTA (site TGTCCCCCTTA)"
  Class: 1.0
- Monomer sequence: "ACCTAGTCATGGACCGGTTTTCCCGGTAATCCGTATTTGGG (site ACCTAGACTCC)"
  Class: 0.0
- Monomer sequence: "GGGAATCCATGGACCGGTTTTCCCGGTAATCCGTATTTGAT (site GGGAATCCTAT)"
  Class: 1.0
- Monomer sequence: "TTGGTGGCATGGACCGGTTTTCCCGGTAATCCGTATTTGTC (site TTGGTGGCTGA)"
  Class: 1.0
- Monomer sequence: "CTGCTACCATGGACCGGTTTTCCCGGTAATCCGTATTTGCT (site CTGCTGCCTAG)"
  Class: 0.0
- Monomer sequence: "CCCTTATCATGGACCGGTTTTCCCGGTAATCCGTATTTGGG (site CCCTTCTCTCC)"
  Class: 0.0
- Monomer sequence: "GGGACTCCATGGACCGGTTTTCCCGGTAATCCGTATTTGCG (site GGGACTCCTCG)"
  Class: 1.0
- Monomer sequence: "CCGTTAGCATGGACCGGTTTTCCCGGTAATCCGTATTTGAG (site CCGTTAGCTCG)"
  Class: 0.0
- Monomer sequence: "CCAGGTGCATGGACCGGTTTTCCCGGTAATCCGTATTTGCT (site CCAGGTGCTAC)"
  Class: 0.0
- Monomer sequence: "TCAGAAACATGGACCGGTTTTCCCGGTAATCCGTATTTGTA (site TCAGAAACTTA)"
  Class: 1.0
- Monomer sequence: "GGATTGGCATGGACCGGTTTTCCCGGTAATCCGTATTTGGT (site GGATTGGCTAC)"
  Class: 1.0
- Monomer sequence: "CGGACATCATGGACCGGTTTTCCCGGTAATCCGTATTTGCA (site CGGACATCTAG)"
  Class: 0.0
- Monomer sequence: "ATGTAGGCATGGACCGGTTTTCCCGGTAATCCGTATTTGGG (site ATGTAGGCTAC)"
  Class: 1.0
- Monomer sequence: "CTTCGAGCATGGACCGGTTTTCCCGGTAATCCGTATTTGCA (site TTTCGAGCTTG)"
  Class: 0.0
- Monomer sequence: "CTCGCTACATGGACCGGTTTTCCCGGTAATCCGTATTTGAG (site CTCACTACTCT)"
  Class: 1.0
- Monomer sequence: "GCCACTCCATGGACCGGTTTTCCCGGTAATCCGTATTTGTA (site GCCACCCCTTA)"
  Class: 0.0
- Monomer sequence: "GTCTACACATGGACCGGTTTTCCCGGTAATCCGTATTTGCT (site GTCTACACTAG)"
  Class: 1.0
- Monomer sequence: "TAGCTAGCATGGACCGGTTTTCCCGGTAATCCGTATTTGAT (site TAGCTAGCTCT)"
  Class: 0.0
- Monomer sequence: "ACCGGATCATGGACCGGTTTTCCCGGTAATCCGTATTTGCG (site ACCGGATCTCG)"
  Class: 1.0
- Monomer sequence: "GTGCATGCATGGACCGGTTTTCCCGGTAATCCGTATTTGGT (site GTGCATGCTCC)"
  Class: 0.0
- Monomer sequence: "TAAAGTTCATGGACCGGTTTTCCCGGTAATCCGTATTTGTA (site TAAAGTCCTTA)"
  Class: 1.0
- Monomer sequence: "AATGACTCATGGACCGGTTTTCCCGGTAATCCGTATTTGGT (site AATGACTCTAC)"
  Class: 1.0
- Monomer sequence: "TAGGATGCATGGACCGGTTTTCCCGGTAATCCGTATTTGGC (site TAGGATGCTGC)"
  Class: 1.0
- Monomer sequence: "CCCATATCATGGACCGGTTTTCCCGGTAATCCGTATTTGGC (site CCCATATCTGA)"
  Class: 0.0
- Monomer sequence: "ATGTCGGCATGGACCGGTTTTCCCGGTAATCCGTATTTGGC (site ATGTCGGCTGC)"
  Class: 1.0
- Monomer sequence: "AATCACGCATGGACCGGTTTTCCCGGTAATCCGTATTTGGG (site AACCACGCTCC)"
  Class: 0.0
- Monomer sequence: "ATGGGAGCATGGACCGGTTTTCCCGGTAATCCGTATTTGTA (site ATGGGAGCTTA)"
  Class: 1.0
- Monomer sequence: "GGGGCACCATGGACCGGTTTTCCCGGTAATCCGTATTTGCA (site AGGGCACCTTG)"
  Class: 0.0
